Biological target: rabbit A2a receptors (Oryctolagus cuniculus, UniProt G1SVQ2)
Sequence (G1SVQ2 1-409): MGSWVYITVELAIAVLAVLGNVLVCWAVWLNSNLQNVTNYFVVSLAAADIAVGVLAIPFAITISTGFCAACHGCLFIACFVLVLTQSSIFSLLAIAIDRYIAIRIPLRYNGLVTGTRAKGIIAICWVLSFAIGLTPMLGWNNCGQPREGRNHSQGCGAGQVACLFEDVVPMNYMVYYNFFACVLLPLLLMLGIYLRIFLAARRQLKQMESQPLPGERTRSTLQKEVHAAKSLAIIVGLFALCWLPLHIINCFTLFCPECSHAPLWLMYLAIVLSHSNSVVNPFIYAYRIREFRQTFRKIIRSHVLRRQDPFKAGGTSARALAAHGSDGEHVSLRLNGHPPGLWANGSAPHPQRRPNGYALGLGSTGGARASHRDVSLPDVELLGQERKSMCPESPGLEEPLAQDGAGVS
Test: biochemical
pEC50: −log10 of the molar value.
MEASUREMENT LABEL: pEC50

MOLECULE	TARGET OR SYSTEM	DATA VALUE
Cn1c(=O)c2c(nc(/C=C/c3cccc(N=C=S)c3)n2C)n(C)c1=O [Compound 28e]	rabbit A2a receptors (Oryctolagus cuniculus, UniProt G1SVQ2)	5.00

----------
Experiment: Aqueous solubility
Details: 0.1 m potassium phosphate, pH 7.4
MEASUREMENT LABEL: solubility (mM)

CHEMICAL SMILES	DATA VALUE
Cn1c(=O)c2c(nc(/C=C/c3cccc(NC(=O)CCC(=O)O)c3)n2C)n(C)c1=O	19

----------
Biological target: A2a receptors, rabbit striatum (Oryctolagus cuniculus, UniProt G1SVQ2)
MEASUREMENT LABEL: Ki (nM)

MOLECULE	TARGET OR SYSTEM	UOM	DATA VALUE
Cn1c(=O)c2c(nc(/C=C/c3cccc(N=C=S)c3)n2C)n(C)c1=O [Compound 28e]	A2a receptors, rabbit striatum (Oryctolagus cuniculus, UniProt G1SVQ2)	nM	347

----------
Molecular target: rat striatal A2a receptors (Rattus norvegicus)
Sequence (P30543 whole entry): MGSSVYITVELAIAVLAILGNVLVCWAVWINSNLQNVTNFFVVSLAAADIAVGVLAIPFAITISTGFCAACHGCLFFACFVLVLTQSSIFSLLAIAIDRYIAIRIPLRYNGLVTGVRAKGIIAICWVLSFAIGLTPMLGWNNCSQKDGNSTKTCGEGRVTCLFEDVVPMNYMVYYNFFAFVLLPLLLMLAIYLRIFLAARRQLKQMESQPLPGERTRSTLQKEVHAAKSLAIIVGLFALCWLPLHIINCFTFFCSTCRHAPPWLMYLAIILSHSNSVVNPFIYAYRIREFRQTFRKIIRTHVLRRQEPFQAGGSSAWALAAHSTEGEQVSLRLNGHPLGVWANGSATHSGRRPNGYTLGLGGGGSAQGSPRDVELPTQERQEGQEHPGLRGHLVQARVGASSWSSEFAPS
Experiment: Radioligand binding, [3H]CGS 21680, rat striatal A2a receptors
Parameters: Rat cerebral cortical membranes and striatal membranes were prepared; from tissue; host or cells: rat striatal membranes
Conditions: rat brain binding, this study
Known A2-selectivity of a selection of compounds

COMPOUND	UOM	READING QUALIFIER	A2-selectivity
Cn1c(=O)c2c(nc(/C=C/c3cccc(F)c3)n2C)n(C)c1=O [Compound 27b]	fold	≥	200
COc1cc(/C=C/c2nc3c(c(=O)n(C)c(=O)n3C)n2C)cc(OC)c1OC(C)=O	fold	=	93
Cn1c(=O)c2c(nc(/C=C/c3cccc(N)c3)n2C)n(C)c1=O [Compound 22b]	fold	=	30
CCCn1c(=O)c2c(nc(/C=C/c3cc(OC)cc(OC)c3)n2C)n(CCC)c1=O [Compound 53b]	fold	=	110

----------
Experiment: Aqueous solubility
Settings: water, 0.5% dmso, organic solvent or mixture, theoretical concentration beyond which UV absorption decreases (supersaturation)

COMPOUND	solubility kinetic
CCCn1c(=O)c2c(nc(/C=C/c3cc(OC)cc(OC)c3)n2C)n(CCC)c1=O [Compound 53b]	20 µM

----------
Known Ki of a selection of compounds
Target: rat striatal A2a receptors (Rattus norvegicus)
Assay: Radioligand binding, [3H]CGS 21680, rat striatal A2a receptors
Design: Rat cerebral cortical membranes and striatal membranes were prepared; from tissue; host or cells: rat striatal membranes
Conditions: vs [3H]CGS 21680; read-out: Ki value / affinity at A2 receptors

COMPOUND	Ki
CCCn1c(=O)c2c(nc(/C=C/c3cccc(F)c3)n2C)n(CCC)c1=O [Compound 50b]	≤ 50 nM
COc1cccc(/C=C/c2nc3c(c(=O)n(C)c(=O)n3C)n2C)c1 [Compound 19b]	85 nM
CCCn1c(=O)c2c(nc(/C=C/c3cccc(N)c3)n2C)n(CCC)c1=O	≤ 50 nM
CCCn1c(=O)c2c(nc(/C=C/c3cc(F)cc(F)c3)n2C)n(CCC)c1=O [Compound 54b]	≤ 50 nM

----------
Test: Aqueous solubility
Conditions: 0.1 m k2hpo4
MEASUREMENT LABEL: solubility

CHEMICAL SMILES	MEASUREMENT LABEL	DATA VALUE
Cn1c(=O)c2c(nc(/C=C/c3cccc(NC(=O)CCC(=O)O)c3)n2C)n(C)c1=O	solubility	19 mM
